Please go through the items and note down their kon.
- tested-target: T1, cynomolgus monkey C-MET His tag, monomeric (cynomolgus monkey, UniProt A0M8R7 25-932 (Papio anubis entry))
- T1 construct: also called monomeric cyno C-MET; cyCMET
- T1 sequence (A0M8R7 25-932 S170N/I621T): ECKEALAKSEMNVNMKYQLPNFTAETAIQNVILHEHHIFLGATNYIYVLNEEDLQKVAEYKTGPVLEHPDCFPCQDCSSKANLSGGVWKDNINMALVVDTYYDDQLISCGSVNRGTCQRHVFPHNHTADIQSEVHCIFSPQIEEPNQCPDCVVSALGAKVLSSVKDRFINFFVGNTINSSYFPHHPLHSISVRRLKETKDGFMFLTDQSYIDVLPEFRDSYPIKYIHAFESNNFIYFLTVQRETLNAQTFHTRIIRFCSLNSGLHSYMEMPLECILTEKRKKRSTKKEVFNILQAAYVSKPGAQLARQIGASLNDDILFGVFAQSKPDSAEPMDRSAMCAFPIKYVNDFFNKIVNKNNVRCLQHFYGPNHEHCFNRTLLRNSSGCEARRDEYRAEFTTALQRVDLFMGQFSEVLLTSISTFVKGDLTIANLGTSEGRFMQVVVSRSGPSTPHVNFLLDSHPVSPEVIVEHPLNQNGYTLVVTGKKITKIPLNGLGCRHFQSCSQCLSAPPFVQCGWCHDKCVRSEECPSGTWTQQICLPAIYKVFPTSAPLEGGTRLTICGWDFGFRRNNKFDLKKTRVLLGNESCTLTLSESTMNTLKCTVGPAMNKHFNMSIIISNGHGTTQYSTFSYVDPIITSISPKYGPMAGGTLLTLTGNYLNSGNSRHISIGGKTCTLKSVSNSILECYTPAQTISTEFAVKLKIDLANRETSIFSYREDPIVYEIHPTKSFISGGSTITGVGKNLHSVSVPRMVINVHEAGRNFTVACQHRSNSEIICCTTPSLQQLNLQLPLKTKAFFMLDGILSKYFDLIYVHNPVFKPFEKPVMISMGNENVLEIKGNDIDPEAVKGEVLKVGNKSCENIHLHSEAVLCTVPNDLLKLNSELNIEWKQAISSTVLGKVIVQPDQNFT
- assay-details: SPR Biacore, IgG captured, monomeric C-MET-His analyte
One number for each entry, in M⁻¹ s⁻¹.

binder	kon, M⁻¹ s⁻¹
04F09 (antibody, IgG4, V domains shown) VH: QVQLVQSGAEVKKPGASVKVSCKASGYIFTSYSMHWVRQAPGQGLEWMGWINPSNGLANYAQKFQGRVTMTRDTSTSTVYMELSSLRSEDTAVYYCARQEITTEFDIWGQGTLVTVSS VL: EIVLTQSPGTLSLSPGERATLSCRASQSVESYAQSYLHWYQQKPGQAPRLLIYRGSTRESGIPDRFSGSGSGTDFTLTISRLEPEDFAVYYCQQSKSDPLTFGGGTKVEIK	290000
08G07 (antibody, human IgG4, V domains shown) VH: QVQLVQSGAEVKKPGASVKVSCKASGYTFTSYTMHWVRQAPGQGLEWMGWINPSGGLANYAQKFQGRVTMTRDTSTSTVYMELSSLRSEDTAVYYCARSEITTDFDYWGQGTLVTVSS VL: EIVLTQSPGTLSLSPGERATLSCRASQSVDSYANSYLHWYQQKPGQAPRLLIYRGSTRESGIPDRFSGSGSGTDFTLTISRLEPEDFAVYYCQQSKSEPLTFGGGTKVEIK	100000
04E10 (antibody, IgG4, V domains shown) VH: QVQLVQSGAEVKKPGASVKVSCKASGYIFTSYTMHWVRQAPGQGLEWMGWIKPNNGSASYAQKFQGRVTMTRDTSTSTVYMELSSLRSEDTAVYYCARSEITTEEDYWGQGTLVTVSS VL: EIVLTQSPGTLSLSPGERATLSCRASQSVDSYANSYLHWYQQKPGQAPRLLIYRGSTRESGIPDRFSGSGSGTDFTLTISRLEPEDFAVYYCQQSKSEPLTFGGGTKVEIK	49000
MH12 (antibody, IgG4, V domains shown) VH: QVQLVQSGAEVKKPGASVKVSCKASGYTFTSYAMHWVRQAPGQGLEWMGWINPSGGSTSYAQKFQGRVTMTRDTSTSTVYMELSSLRSEDTAVYYCARQEITTEFDYWGQGTLVTVSS VL: EIVLTQSPGTLSLSPGERATLSCRASQSVSSYAQSYLHWYQQKPGQAPRLLIYRGSTRETGIPDRFSGSGSGTDFTLTISRLEPEDFAVYYCQQYGSSPLTFGGGTKVEIK	110000

Consider the record given below.
Prompt line: What value of measured kon is listed for MH8 (antibody, IgG4, V domains shown) VH: QVQLVQSGAEVKKPGASVKVSCKASGYTFTSYTMHWVRQAPGQGLEWMGIINPSGGSTSYAQKFQGRVTMTRDTSTSTVYMELSSLRSEDTAVYYCARQEITTEFDYWGQGTLVTVSS VL: EIVLTQSPGTLSLSPGERATLSCRASQSVSSYAQSYLHWYQQKPGQAPRLLIYRGSTRETGIPDRFSGSGSGTDFTLTISRLEPEDFAVYYCQQSGSSPLTFGGGTKVEIK ?
Response line: 160000
